Target: Tyrosinase (Agaricus bisporus, UniProt O42713)
Sequence (O42713 whole entry): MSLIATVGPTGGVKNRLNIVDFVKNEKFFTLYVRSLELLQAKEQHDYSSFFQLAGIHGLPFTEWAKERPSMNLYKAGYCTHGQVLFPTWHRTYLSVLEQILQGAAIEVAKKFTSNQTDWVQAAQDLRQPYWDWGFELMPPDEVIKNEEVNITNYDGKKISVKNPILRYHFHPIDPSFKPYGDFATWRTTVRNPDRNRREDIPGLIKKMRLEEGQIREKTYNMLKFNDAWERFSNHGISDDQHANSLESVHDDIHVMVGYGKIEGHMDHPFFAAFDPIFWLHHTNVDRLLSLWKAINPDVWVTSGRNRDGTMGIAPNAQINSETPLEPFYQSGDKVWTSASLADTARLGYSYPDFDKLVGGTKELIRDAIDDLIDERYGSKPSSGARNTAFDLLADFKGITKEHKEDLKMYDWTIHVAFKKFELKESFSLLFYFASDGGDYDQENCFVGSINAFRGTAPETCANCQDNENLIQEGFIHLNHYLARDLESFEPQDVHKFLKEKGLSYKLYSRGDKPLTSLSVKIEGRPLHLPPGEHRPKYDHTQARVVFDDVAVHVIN
outcome_measure: IC50 (µM)
Answers are plain numbers, in µM.

Known IC50 results, listed for orientation:
NC(=S)c1cccnc1: 7.5
NC(=S)c1ccccc1: 2.8
NC(=S)c1ccccn1: 14.4

The following molecules each have a reported value; give each one's IC50.
1. CCCc1cc(C(N)=S)ccn1 [PROTIONAMIDE]
2. NC(=S)c1ccncc1
3. CCc1cc(C(N)=S)ccn1 [ETHIONAMIDE]

OUT:
1: 4.5; 2: 43.8; 3: 4

IN: What is its IC50 for Tyrosinase (Agaricus bisporus, UniProt O42713)? Entry: CC(=S)Nc1ccccc1
OUT: 4.1

The measured values listed here are drawn from ChEMBL document CHEMBL3739382.
